# testTarget: dopamine transporter (Homo sapiens)
# Sequence (Q01959 whole entry): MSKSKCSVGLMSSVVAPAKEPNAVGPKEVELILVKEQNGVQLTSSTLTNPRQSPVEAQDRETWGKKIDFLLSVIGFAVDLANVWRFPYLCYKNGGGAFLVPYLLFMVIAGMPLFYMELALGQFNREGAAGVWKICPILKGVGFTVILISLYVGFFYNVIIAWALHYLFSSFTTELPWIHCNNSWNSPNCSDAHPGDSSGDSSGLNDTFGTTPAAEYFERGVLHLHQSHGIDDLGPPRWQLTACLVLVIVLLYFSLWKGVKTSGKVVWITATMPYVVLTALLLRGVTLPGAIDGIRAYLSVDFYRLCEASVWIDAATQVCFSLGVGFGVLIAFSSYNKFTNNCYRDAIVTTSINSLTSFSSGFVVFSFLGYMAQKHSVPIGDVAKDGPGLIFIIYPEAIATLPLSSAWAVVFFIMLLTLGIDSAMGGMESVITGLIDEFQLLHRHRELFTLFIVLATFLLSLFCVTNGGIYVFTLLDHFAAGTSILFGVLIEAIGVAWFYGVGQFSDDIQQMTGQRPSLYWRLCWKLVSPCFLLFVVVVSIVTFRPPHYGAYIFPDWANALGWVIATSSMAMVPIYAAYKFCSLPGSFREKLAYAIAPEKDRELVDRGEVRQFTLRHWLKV
pKi: −log10 of the molar value.
recordedMetric: pKi

>>> df
                          chemicalstructure  recordedmetric  assayvalue
0  NC(=O)c1ccc(OCCNC[C@H](O)COc2ccc3c(c2)OC[C@@H](COCC2CC2)O3)cc1             pKi        6.10

---

Parameter 'readout' = IC50; parameter 'system' = CYP2C19 (Homo sapiens).
Sequence (P33261 whole entry): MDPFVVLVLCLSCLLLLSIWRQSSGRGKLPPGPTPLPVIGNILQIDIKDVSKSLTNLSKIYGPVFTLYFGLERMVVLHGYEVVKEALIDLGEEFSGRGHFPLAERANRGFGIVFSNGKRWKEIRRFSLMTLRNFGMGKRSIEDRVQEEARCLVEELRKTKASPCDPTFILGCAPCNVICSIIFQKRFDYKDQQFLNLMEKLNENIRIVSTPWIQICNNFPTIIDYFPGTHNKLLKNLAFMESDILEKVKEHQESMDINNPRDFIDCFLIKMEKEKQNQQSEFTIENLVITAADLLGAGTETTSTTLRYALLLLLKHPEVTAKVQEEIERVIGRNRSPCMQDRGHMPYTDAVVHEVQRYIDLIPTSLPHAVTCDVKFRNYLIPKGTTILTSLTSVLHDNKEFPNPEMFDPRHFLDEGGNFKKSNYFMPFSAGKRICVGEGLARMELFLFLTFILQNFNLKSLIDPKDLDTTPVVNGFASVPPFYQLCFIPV
recordedMetric: IC50

In [3]: df
Out[3]:
                          chemicalstructure              testtarget  assayvalue
0  O=C1NCc2cc(OCCNC[C@H](O)COc3ccc4c(c3)OC[C@@H](COCC3CC3)O4)ccc21  CYP2C19 (Homo sapiens)     > 20 µM
1  NC(=O)c1ccc(OCCNC[C@H](O)COc2ccc3c(c2)OC[C@@H](COCC2CC2)O3)cc1  CYP2C19 (Homo sapiens)     > 20 µM

---

# procedureSummary: Bidirectional CaCo-2 permeability
# Format: in vitro ADME
# testConditions: human, Caco-2; 20 µM, pH 7.4, 90 min, hydrochloride salts used, mean ± SD
Below, each entry is listed alongside its reported Papp A→B at 90 min, 20 µM.
recordedMetric: Papp A→B at 90 min, 20 µM (×10⁻⁶ cm/s)

>>> df
                          chemicalstructure             recordedmetric  assayvalue
0  O=C1NCc2cc(OCCNC[C@H](O)COc3ccc4c(c3)OC[C@@H](COCC3CC3)O4)ccc21  Papp A→B at 90 min, 20 µM         6.5
1  NC(=O)c1ccc(OCCNC[C@H](O)COc2ccc3c(c2)OC[C@@H](COCC2CC2)O3)cc1  Papp A→B at 90 min, 20 µM          25

---

# procedureSummary: Protein binding by ultracentrifugation, rat plasma
# Format: in vitro ADME
# testConditions: male, Sprague-Dawley, read-out: fu rat plasma
Below, each entry is listed alongside its reported fraction unbound at 1 h, 1 µM.
recordedMetric: fraction unbound at 1 h, 1 µM

>>> print(df.to_string())
                          chemicalstructure                 recordedmetric  assayvalue
0  O=C1NCc2cc(OCCNC[C@H](O)COc3ccc4c(c3)OC[C@@H](COCC3CC3)O4)ccc21  fraction unbound at 1 h, 1 µM        0.11
1  NC(=O)c1ccc(OCCNC[C@H](O)COc2ccc3c(c2)OC[C@@H](COCC2CC2)O3)cc1  fraction unbound at 1 h, 1 µM        0.16

---

Below, each entry is listed alongside its reported half-life.
# procedureSummary: PK analysis in male Sprague-Dawley rats
# Assay type: in vivo
# testConditions: male, Sprague-Dawley, plasma, po; rat, p.o. 20 mg/kg, hydrochloride salt forms; read-out: t1/2, app (converted)
recordedMetric: half-life (h)

                          chemicalstructure  assayvalue
0  O=C1NCc2cc(OCCNC[C@H](O)COc3ccc4c(c3)OC[C@@H](COCC3CC3)O4)ccc21         3.3
1  NC(=O)c1ccc(OCCNC[C@H](O)COc2ccc3c(c2)OC[C@@H](COCC2CC2)O3)cc1         2.1

---

# procedureSummary: PK analysis in male Sprague-Dawley rats
# Type: in vivo
# testConditions: male, Sprague-Dawley, plasma, po; rat, p.o. 2 mg/kg, hydrochloride salt forms
recordedMetric: AUC(0-t) (µM·h)

>>> df
                          chemicalstructure  assayvalue
0  NC(=O)c1ccc(OCCNC[C@H](O)COc2ccc3c(c2)OC[C@@H](COCC2CC2)O3)cc1         0.6
1  O=C1NCc2cc(OCCNC[C@H](O)COc3ccc4c(c3)OC[C@@H](COCC3CC3)O4)ccc21         0.4
